Assay: Solubility of indirubin derivative in oils and surfactants (LC/MS/MS)
Format: physicochemical
Conditions: aqueous with cosolvent or surfactant or cyclodextrin, thermodynamic from solid; in Tween 80; 72 hours at 37° C.
observed.property: solubility at 72 h (µg/mL)
The response must be a number in µg/mL with no trailing unit.

Lookup: Please give the measured solubility at 72 h for this compound: CO/N=C1/C(=C2/C(=O)Nc3cc(Cl)c(Cl)cc32)Nc2ccccc21 [Embodiment A3051, 5,6-dichloroindirubin-3′-methoxime]
Found: 4920

###

Experiment: Solubility of indirubin derivative in oils and surfactants (LC/MS/MS)
Assay type: physicochemical
Conditions: aqueous with cosolvent or surfactant or cyclodextrin, thermodynamic from solid; in Kolliphor EL; 72 hours at 37° C.
observed.property: solubility at 72 h (µg/mL)
The response must be a number in µg/mL with no trailing unit.

Lookup: Please give the measured solubility at 72 h for this compound: CO/N=C1/C(=C2/C(=O)Nc3cc(Cl)c(Cl)cc32)Nc2ccccc21
Found: 5400
